molecular target: Prostaglandin G/H synthase 1 (Homo sapiens, UniProt P23219)
Sequence (P23219 whole entry): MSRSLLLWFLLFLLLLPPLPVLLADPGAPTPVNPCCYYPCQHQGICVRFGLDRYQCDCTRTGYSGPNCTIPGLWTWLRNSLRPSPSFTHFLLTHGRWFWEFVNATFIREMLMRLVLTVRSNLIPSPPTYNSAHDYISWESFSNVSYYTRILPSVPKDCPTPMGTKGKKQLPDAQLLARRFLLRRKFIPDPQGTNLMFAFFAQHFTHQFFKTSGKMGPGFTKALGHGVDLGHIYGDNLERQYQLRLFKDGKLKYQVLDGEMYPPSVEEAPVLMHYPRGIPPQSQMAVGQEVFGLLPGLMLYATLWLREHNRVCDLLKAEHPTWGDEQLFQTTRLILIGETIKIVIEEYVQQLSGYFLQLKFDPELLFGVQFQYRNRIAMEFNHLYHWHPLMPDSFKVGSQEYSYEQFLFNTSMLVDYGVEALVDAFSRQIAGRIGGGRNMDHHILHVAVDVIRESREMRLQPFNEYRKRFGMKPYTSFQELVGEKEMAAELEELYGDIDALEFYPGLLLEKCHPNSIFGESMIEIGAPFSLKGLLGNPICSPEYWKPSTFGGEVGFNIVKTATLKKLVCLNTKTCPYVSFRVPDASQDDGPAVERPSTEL
Provide the recorded IC50 for the entries that follow.
Answers are plain numbers, in µM.

* CS(=O)(=O)c1ccc(-c2cnn(Cc3nccs3)c(=O)c2-c2ccc(F)cc2)cc1 | 10
* CC(C1CC1)n1ncc(-c2ccc(S(C)(=O)=O)cc2)c(-c2ccc(F)cc2)c1=O (racemic) | 10
* CS(=O)(=O)c1ccc(-c2cnn(Cc3ccccc3)c(=O)c2Oc2ccc(Cl)cn2)cc1 | 10
* CS(=O)(=O)c1ccc(-c2cnn(CC3CCCCC3)c(=O)c2-c2ccc(F)cc2)cc1 | 1
* CS(=O)(=O)c1ccc(-c2cnn(Cc3ccccc3)c(=O)c2OCC2CC2)cc1 | 10

Return the recorded IC50 value; entry: C[C@H]1C(Cn2ncc(-c3ccc(S(C)(=O)=O)cc3)c(-c3ccc(F)cc3)c2=O)[C@@H]1C (mixture of isomers)
3

----------
Would you mind telling me the reported Cmax of each entry?
assay: Cmax value was determined after peroral administration of 20 mg/kg in rat; assay type: ADME, organism-based; set-up: dose 20 mg/kg, route oral; conditions: in vivo, po
One number for each entry, in µM.

* CS(=O)(=O)c1ccc(-c2cnn(CC3CC3)c(=O)c2-c2ccc(F)cc2)cc1 | 8.5
* Cc1ccc(-c2c(-c3ccc(S(C)(=O)=O)cc3)cnn(Cc3ccccc3)c2=O)cc1 | 2.7
* Cc1ccc(-c2c(-c3ccc(S(C)(=O)=O)cc3)cnn(Cc3ccccc3)c2=O)cn1 | 4.2

Next compound, please.
Query Cmax for CS(=O)(=O)c1ccc(-c2cnn(Cc3ccccc3)c(=O)c2OCC2CC2)cc1
0.8

Where these numbers come from: ChEMBL document CHEMBL1136575
